system: M14; test: NCI tumour cell line growth inhibition, 48 h
Active and inactive are the calls of the source. Cut-off read from the data, not from the text of the source: active = GI50 up to about 1.1 µM and inactive = higher.
quantityName: GI50

Worked cases, GI50 given:
compound	GI50
CCOC(=O)[C@@H]1C[C@H]1c1ccc(O)c(O)c1	34.8 µM (inactive)
CCN(CC)CCNc1ccc2ncn3c4ccc(O)cc4c(=O)c1c23	1.28 µM (inactive)
Cc1cc(NS(=O)(=O)c2ccc(Nc3c4ccccc4nc4c(C(=O)N5CCN(CCO)CC5)ccc(Cl)c34)cc2)no1	> 100 µM (inactive)
CC(=O)SSC1(Cl)C(C)(C)C(Cl)(SSC(C)=O)C1(C)C (stereo not given)	84.1 µM (inactive)
O=C1N(CN2CCOCC2)CN(CN2CCOCC2)C(=O)N1Cc1ccc(CN2C(=O)N(CN3CCOCC3)CN(CN3CCOCC3)C2=O)cc1	28.2 µM (inactive)

[in] For the compound shown here, CCO/C=N/C1=C(C#N)C(c2ccc(Cl)cc2)c2c(-c3ccccc3)nn(-c3ccccc3)c2O1 (stereo not given) , give the reported GI50.
[out] 4.58 µM (inactive)

[in] For the compound shown here, CCC1C[N+]23CCc4c([nH]c5ccccc45)C2CC1CC3 (stereo not given) , give the reported GI50.
[out] > 100 µM (inactive)

[in] For the compound shown here, COc1ccc(COCC[C@H](C)OC2OC(CO[Si](C)(C)C(C)(C)C)C(O)C(O)C2O)cc1 (stereo not given in full) , give the reported GI50.
[out] > 100 µM (inactive)

Just for reference, ChEMBL document CHEMBL1201862 is where these values come from.
